assaySummary: Aqueous solubility study in Britton-Robinson's buffer (HPLC-UV)
Type: physicochemical
conditionSet: aqueous buffer, thermodynamic from solid; pH 5.99, Britton-Robinson's buffer, ambient temperature overnight
This listing pairs compounds with measured solubility.
Give just the number in µg/mL; leave the unit off.

# compound, valueUnit, solubility
measured = [
    ("CNc1cccc(NC(=O)NC2N=C(c3ccccn3)c3ccccc3N(CC(=O)C(C)(C)CO)C2=O)c1 (racemic) [TR1]", "µg/mL", 11.6),
]

We next turn to a different compound, shown below.
Per the records, this compound ( CNc1cccc(NC(=O)N[C@@H]2N=C(c3ccccn3)c3ccccc3N(CC(=O)C(C)(C)C)C2=O)c1 [YF476, reference compound] ) has solubility equal to 1.3

====

assaySummary: Aqueous solubility study in Britton-Robinson's buffer (HPLC-UV)
Type: physicochemical
conditionSet: aqueous buffer, thermodynamic from solid; pH 6.98, Britton-Robinson's buffer, ambient temperature overnight
This listing pairs compounds with measured solubility.
Supply the numeric figure in µg/mL, leaving out any unit text.

# compound, solubility (µg/mL)
measured = [
    ("CNc1cccc(NC(=O)NC2N=C(c3ccccn3)c3ccccc3N(CC(=O)C(C)(C)CO)C2=O)c1 (racemic) [TR1]", 5.84),
]

Next, consider the following compound.
The measured solubility associated with CNc1cccc(NC(=O)N[C@@H]2N=C(c3ccccn3)c3ccccc3N(CC(=O)C(C)(C)C)C2=O)c1 [YF476, reference compound] reads 1.4

====

assaySummary: Aqueous solubility study in Britton-Robinson's buffer (HPLC-UV)
Type: physicochemical
conditionSet: aqueous buffer, thermodynamic from solid; pH 5.08, Britton-Robinson's buffer, ambient temperature overnight
Measured solubility of individual entries
Kindly provide the numeric value in µg/mL only, without the unit symbol.

# molecule, solubility [µg/mL]
rows = [
    ("CNc1cccc(NC(=O)NC2N=C(c3ccccn3)c3ccccc3N(CC(=O)C(C)(C)CO)C2=O)c1 (racemic) [TR1]", 9.8),
]

# next molecule below
solubility in this record for CNc1cccc(NC(=O)N[C@@H]2N=C(c3ccccn3)c3ccccc3N(CC(=O)C(C)(C)C)C2=O)c1 [YF476, reference compound] : 1.4

====

assaySummary: Aqueous solubility study in Britton-Robinson's buffer (HPLC-UV)
Format: physicochemical
conditionSet: pH 5.99, aqueous buffer, thermodynamic from solid, pH 5.99, Britton-Robinson's buffer, ambient temperature overnight
Experimental: The test compound (2.5 mg of solid; n=1) was weighed in a clear glass vial and Britton-Robinson's buffer (0.5 mL) was added (pH 2.01, pH 3.06, pH 4.06, pH 5.08, pH 5.99, pH 6.98, and pH 8.16). The solution was agitated at ambient temperature overnight using a vial roller system, and then filtered (0.45 μm pore size; without pre-saturation). […] The concentration of test compound in the filtrate was quantified relative to the concentration standard. […]
measurementKind: solubility (µg/mL)
Express it in µg/mL; write the number only.

Quick note, solubility for CNc1cccc(NC(=O)N[C@@H]2N=C(c3ccccn3)c3ccccc3N(CC(=O)C(C)(C)COC(C)=O)C2=O)c1 landed at 47.2

====

Consider the following compounds and their measured solubility readings.
assaySummary: Aqueous solubility study in Britton-Robinson's buffer (HPLC-UV)
Assay type: physicochemical
conditionSet: aqueous buffer, thermodynamic from solid; pH 2.01, Britton-Robinson's buffer, ambient temperature overnight
State just the number; it will be interpreted in µg/mL.

# compound, solubility (µg/mL)
records = [
    ("CNc1cccc(NC(=O)NC2N=C(c3ccccn3)c3ccccc3N(CC(=O)C(C)(C)CO)C2=O)c1 (racemic)", 5000),
]

Record CNc1cccc(NC(=O)N[C@@H]2N=C(c3ccccn3)c3ccccc3N(CC(=O)C(C)(C)C)C2=O)c1 [YF476, reference compound] , field solubility: 2650

====

assaySummary: Pharmacokinetics in healthy subjects, single oral dose, API in capsule
conditionSet: human, in vivo; after single oral doses of (TR2-A); analyte TR2-A; read-out: AUC0-24 h of plasma concentrations of (TR2-A)
measurementKind: AUC(0-t)

AUC(0-t) for CNc1cccc(NC(=O)N[C@@H]2N=C(c3ccccn3)c3ccccc3N(CC(=O)C(C)(C)COC(C)=O)C2=O)c1 is < 10 ng·h/mL

====

Listed here are molecules together with their documented IC50.
testedTarget: CCK1 (human) (Homo sapiens, UniProt P32238)
Sequence (P32238 whole entry): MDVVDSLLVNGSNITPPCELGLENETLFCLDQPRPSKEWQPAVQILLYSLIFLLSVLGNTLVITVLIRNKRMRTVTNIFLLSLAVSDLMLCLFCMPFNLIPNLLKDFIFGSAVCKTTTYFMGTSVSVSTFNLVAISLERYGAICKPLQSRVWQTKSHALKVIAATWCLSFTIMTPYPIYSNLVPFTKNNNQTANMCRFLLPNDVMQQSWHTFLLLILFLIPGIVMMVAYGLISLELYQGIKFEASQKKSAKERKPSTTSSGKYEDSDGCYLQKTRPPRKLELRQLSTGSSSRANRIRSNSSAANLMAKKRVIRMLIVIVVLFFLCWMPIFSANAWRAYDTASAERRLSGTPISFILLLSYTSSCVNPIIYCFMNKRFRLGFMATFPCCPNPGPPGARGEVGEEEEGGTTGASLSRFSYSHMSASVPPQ
assaySummary: CCK1 receptor functional assay (antagonist effect, cAMP, HTRF)
conditionSet: stimulus CCK-8s 300 nM, 10 min 37° C., CHO cells
Numeric only. Scale: nM

Reference set, count: 2
# molecule, IC50, nM
rows = [
    ("CNc1cccc(NC(=O)N[C@@H]2N=C(c3ccccn3)c3ccccc3N(CC(=O)C(C)(C)CO)C2=O)c1 [TR2]", 1000),
    ("CNc1cccc(NC(=O)N[C@H]2N=C(c3ccccn3)c3ccccc3N(CC(=O)C(C)(C)CO)C2=O)c1 [TR3]", 8500),
]

# input for lookup
Entry CNc1cccc(NC(=O)N[C@@H]2N=C(c3ccccn3)c3ccccc3N(CC(=O)C(C)(C)C)C2=O)c1 [YF476, reference compound] ; IC50 = 160

====

assaySummary: Pharmacokinetics in healthy subjects, single oral dose, API in capsule
conditionSet: human, in vivo, po, 100 mg
Entries and their AUC
Numeric answer only, unit ng·h/mL assumed.

# compound, valueUnit, AUC
rows = [
    ("CNc1cccc(NC(=O)N[C@@H]2N=C(c3ccccn3)c3ccccc3N(CC(=O)C(C)(C)C)C2=O)c1 [YF476, reference compound]", "ng·h/mL", 198),
]

Reported AUC of CNc1cccc(NC(=O)N[C@@H]2N=C(c3ccccn3)c3ccccc3N(CC(=O)C(C)(C)CO)C2=O)c1 : 439

====

Entries and their solubility
assaySummary: Aqueous solubility study in Britton-Robinson's buffer (HPLC-UV)
Format: physicochemical
conditionSet: aqueous buffer, thermodynamic from solid; pH 4.06, Britton-Robinson's buffer, ambient temperature overnight
# output: numeric value plus its unit

# compound, result
data = [
    ("CNc1cccc(NC(=O)N[C@@H]2N=C(c3ccccn3)c3ccccc3N(CC(=O)C(C)(C)C)C2=O)c1 [YF476, reference compound]", "5.9 µg/mL"),
]

Lookup result for CNc1cccc(NC(=O)NC2N=C(c3ccccn3)c3ccccc3N(CC(=O)C(C)(C)CO)C2=O)c1 (racemic) ; measured solubility: 58.2 µg/mL

====

assaySummary: Aqueous solubility study in Britton-Robinson's buffer (HPLC-UV)
Type: physicochemical
conditionSet: pH 3.06, aqueous buffer, thermodynamic from solid, pH 3.06, Britton-Robinson's buffer, ambient temperature overnight
measurementKind: solubility

Data point: CNc1cccc(NC(=O)N[C@@H]2N=C(c3ccccn3)c3ccccc3N(CC(=O)C(C)(C)COC(C)=O)C2=O)c1 ; solubility = 730 µg/mL

====

Entries and their measured IC50 follow.
testedTarget: UniProt P32239
Sequence (P32239 whole entry): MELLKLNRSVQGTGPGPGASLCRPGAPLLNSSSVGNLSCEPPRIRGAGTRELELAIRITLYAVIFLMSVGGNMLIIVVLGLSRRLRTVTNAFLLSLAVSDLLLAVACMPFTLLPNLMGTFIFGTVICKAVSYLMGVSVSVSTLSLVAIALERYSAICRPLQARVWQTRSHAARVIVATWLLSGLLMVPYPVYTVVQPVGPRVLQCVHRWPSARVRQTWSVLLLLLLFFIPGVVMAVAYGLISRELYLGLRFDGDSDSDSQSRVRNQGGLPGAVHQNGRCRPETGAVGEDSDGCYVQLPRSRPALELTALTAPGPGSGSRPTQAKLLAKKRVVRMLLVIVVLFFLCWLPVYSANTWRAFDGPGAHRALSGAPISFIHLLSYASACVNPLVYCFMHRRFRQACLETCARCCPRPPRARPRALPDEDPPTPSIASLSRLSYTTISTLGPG
assaySummary: CCK2 receptor functional assay (antagonist effect, cAMP, HTRF)
Type: cell-based
Design: expressed in transfected cells; host or cells: CHO cells
conditionSet: stimulus CCK-8s 10 nM, 10 min 37° C., CHO cells; read-out: CCK2 IC50
Answer in nM, number only, no unit symbol.

# compound, valueUnit, IC50
rows = [
    ("CNc1cccc(NC(=O)N[C@H]2N=C(c3ccccn3)c3ccccc3N(CC(=O)C(C)(C)CO)C2=O)c1", "nM", 99),
    ("CNc1cccc(NC(=O)N[C@@H]2N=C(c3ccccn3)c3ccccc3N(CC(=O)C(C)(C)CO)C2=O)c1", "nM", 2.5),
]

Below: the item to evaluate.
Per the record, CNc1cccc(NC(=O)N[C@@H]2N=C(c3ccccn3)c3ccccc3N(CC(=O)C(C)(C)C)C2=O)c1 [YF476, reference compound] has IC50 of 0.52

====

Here the recorded solubility is given for each entry.
assaySummary: Aqueous solubility study in Britton-Robinson's buffer (HPLC-UV)
Format: physicochemical
conditionSet: aqueous buffer, thermodynamic from solid; pH 3.06, Britton-Robinson's buffer, ambient temperature overnight
Answer with a number only, understood to be in µg/mL.

# compound, solubility [µg/mL]
measured = [
    ("CNc1cccc(NC(=O)N[C@@H]2N=C(c3ccccn3)c3ccccc3N(CC(=O)C(C)(C)C)C2=O)c1 [YF476, reference compound]", 99.7),
]

Then there is this compound:
Form field solubility, entry CNc1cccc(NC(=O)NC2N=C(c3ccccn3)c3ccccc3N(CC(=O)C(C)(C)CO)C2=O)c1 (racemic) : 645

====

assaySummary: Aqueous solubility study in Britton-Robinson's buffer (HPLC-UV)
Type: physicochemical
conditionSet: pH 8.16, aqueous buffer, thermodynamic from solid, pH 8.16, Britton-Robinson's buffer, ambient temperature overnight
measurementKind: solubility
Remember to follow the number with its unit.

Lab note: CNc1cccc(NC(=O)N[C@@H]2N=C(c3ccccn3)c3ccccc3N(CC(=O)C(C)(C)COC(C)=O)C2=O)c1 gave solubility of 45.4 µg/mL

====

assaySummary: Aqueous solubility study in Britton-Robinson's buffer (HPLC-UV)
Assay type: physicochemical
conditionSet: pH 2.01, aqueous buffer, thermodynamic from solid, pH 2.01, Britton-Robinson's buffer, ambient temperature overnight
measurementKind: solubility (µg/mL)
// note: answer is a bare numeric in µg/mL

For record CNc1cccc(NC(=O)N[C@@H]2N=C(c3ccccn3)c3ccccc3N(CC(=O)C(C)(C)COC(C)=O)C2=O)c1 the listed solubility is 4190
